assay.info: Metabolic stability of the compound in hepatic S9 fraction (unknown origin) assessed as compound remaining at 10 uM after 60 mins
Type: ADME, tissue-based, Liver
measurement.context: read-out: Stability
Give remaining at 1 h, 10 µM for every item shown.
Form entry: value (%) — number only.

Query (compound): `CC(C)[C@@H](CN1CC[C@@](C)(c2ccccc2)[C@@H](C)C1)NC(=O)[C@H]1Cc2ccc(O)cc2CN1` ; field requested: remaining at 1 h, 10 µM
82

Query (compound): `CC(C)[C@@H](CN1CC[C@@](C)(c2cccc(O)c2)[C@@H](C)C1)NC(=O)[C@H]1Cc2ccc(O)cc2CN1` ; field requested: remaining at 1 h, 10 µM
76

* * *

assay.info: Metabolic stability of the compound in plasma (unknown origin) assessed as compound remaining at 10 uM after 60 mins
Type: ADME, cell-free
measurement.context: read-out: Stability
property.measured: remaining at 1 h, 10 µM (%)
Form entry: value (%) — number only.

Query (molecule): `CC(C)[C@@H](CN1CC[C@@](C)(c2cccc(O)c2)[C@@H](C)C1)NC(=O)[C@H]1Cc2ccc(O)cc2CN1` ; field requested: remaining at 1 h, 10 µM
97

Query (molecule): `CC(C)[C@@H](CN1CC[C@@](C)(c2ccccc2)[C@@H](C)C1)NC(=O)[C@H]1Cc2ccc(O)cc2CN1` ; field requested: remaining at 1 h, 10 µM
67

* * *

Notes on pKi obtained with Voltage-gated inwardly rectifying potassium channel KCNH2 (Homo sapiens, UniProt Q12809).
Sequence (Q12809 whole entry): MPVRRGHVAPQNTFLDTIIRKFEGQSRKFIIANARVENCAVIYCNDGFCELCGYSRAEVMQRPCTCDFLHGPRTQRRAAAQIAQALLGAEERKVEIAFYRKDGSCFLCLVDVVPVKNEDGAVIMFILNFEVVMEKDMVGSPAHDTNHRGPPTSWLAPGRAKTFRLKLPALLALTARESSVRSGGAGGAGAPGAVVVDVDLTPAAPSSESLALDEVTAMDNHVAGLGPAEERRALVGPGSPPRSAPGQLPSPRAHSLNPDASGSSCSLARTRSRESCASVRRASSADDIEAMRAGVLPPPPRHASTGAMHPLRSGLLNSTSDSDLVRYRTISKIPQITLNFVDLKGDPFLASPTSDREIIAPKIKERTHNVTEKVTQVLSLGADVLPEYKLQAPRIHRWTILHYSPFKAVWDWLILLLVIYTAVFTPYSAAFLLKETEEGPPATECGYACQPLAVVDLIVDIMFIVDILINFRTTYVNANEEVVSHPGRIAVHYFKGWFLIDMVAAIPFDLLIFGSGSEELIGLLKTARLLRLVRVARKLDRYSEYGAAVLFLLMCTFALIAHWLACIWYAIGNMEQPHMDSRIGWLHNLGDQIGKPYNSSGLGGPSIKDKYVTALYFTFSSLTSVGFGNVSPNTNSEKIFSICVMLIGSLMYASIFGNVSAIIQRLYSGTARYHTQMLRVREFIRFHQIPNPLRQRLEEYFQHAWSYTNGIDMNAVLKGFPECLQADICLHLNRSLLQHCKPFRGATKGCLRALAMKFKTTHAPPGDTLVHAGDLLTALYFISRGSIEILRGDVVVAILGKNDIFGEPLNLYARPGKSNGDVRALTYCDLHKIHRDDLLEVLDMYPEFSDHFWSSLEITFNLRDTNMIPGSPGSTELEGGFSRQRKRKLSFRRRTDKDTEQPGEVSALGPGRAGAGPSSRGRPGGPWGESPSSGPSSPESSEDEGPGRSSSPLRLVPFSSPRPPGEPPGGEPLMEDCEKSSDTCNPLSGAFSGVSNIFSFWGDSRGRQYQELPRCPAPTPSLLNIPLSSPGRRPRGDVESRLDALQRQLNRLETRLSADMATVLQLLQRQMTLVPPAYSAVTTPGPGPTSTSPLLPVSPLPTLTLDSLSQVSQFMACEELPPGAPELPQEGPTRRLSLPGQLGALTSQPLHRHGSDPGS
Please keep in mind that pKi is minus log10 of the molar concentration; only the number is needed.

Query (molecule): `CC(C)[C@@H](CN1CC[C@@](C)(c2cccc(O)c2)[C@@H](C)C1)NC(=O)[C@H]1Cc2ccc(O)cc2CN1` ; field requested: pKi
5.05

Query (molecule): `CC(C)[C@@H](CN1CC[C@@](C)(c2ccccc2)[C@@H](C)C1)NC(=O)[C@H]1Cc2ccc(O)cc2CN1` ; field requested: pKi
5.15

These entries and their values trace back to ChEMBL document CHEMBL3612054.
